# Tested on: SNU668
# EXPERIMENTAL PROTOCOL: Cell viability drug screen, 12-point dose-response AUC
# Type: cell-based, human
# PROTOCOL CONDITIONS: SNU668 cells; 72 hours; 12-point dose-response
PARAMETER: area under the viability curve (AUC), normalized
Provide a numeric answer; units are not to be included.

Q. Requested read-out: area under the viability curve (AUC), normalized. Entry: Nc1ccc(-c2ccc3ncc4ccc(=O)n(-c5cccc(C(F)(F)F)c5)c4c3c2)cn1
A. 0.4391

Q. Requested read-out: area under the viability curve (AUC), normalized. Entry: CC(C)[C@]12O[C@H]1[C@@H]1O[C@]13[C@]1(O[C@H]1C[C@H]1C4=C(CC[C@@]13C)C(=O)OC4)[C@@H]2O [Triptolide]
A. −1.284

Q. Requested read-out: area under the viability curve (AUC), normalized. Entry: Cc1cnc(NC(=O)Nc2cc(Br)c(C)cc2OC[C@@H]2CNCCO2)cn1
A. 0.1713

Q. Requested read-out: area under the viability curve (AUC), normalized. Entry: CC(/C=C/C(=O)NO)=C\[C@@H](C)C(=O)c1ccc(N(C)C)cc1
A. 0.1344
